These data points were gathered from PubChem BioAssay AID2060513.

# viability, T/C listing for each entry below
System: 299254-011-R-J1-PDC complex spheroids viability
Experiment: Anticancer human tumor 299254-011-R-J1-PDC patient-derived melanoma cell line growth inhibition [GQUAD]
Details: second compound 0.316 µM; first compound 0.0316 µM; active compounds read low
Numbers only; they are read as %.

INSERT INTO assay_data (compound, property_measured, result_unit, observed_measurement) VALUES
  ('CC1COCCN1c1cc(-c2ccnn2C)c2ccnc(-c3ccn[nH]3)c2n1 (stereo unspecified) + Cc1[nH]c2ccc(F)cc2c1-c1nc2c3cccnc3c3ncccc3c2[nH]1', 'viability, T/C', '%', 90),
  ('CC1COCCN1c1cc(C2(S(C)(=N)=O)CC2)nc(-c2ccnc3[nH]ccc23)n1 (stereo unspecified) + Cc1[nH]c2ccc(F)cc2c1-c1nc2c3cccnc3c3ncccc3c2[nH]1', 'viability, T/C', '%', 78.7),
  ('COc1ccc([C@@H](O)c2cc(-c3ncnc4cc(N5CCOCC5)ccc34)c(F)cc2Cl)nn1 + CN(C)c1ccc(Nc2c3ccc(NC(=O)CCN4CCCC4)cc3nc3cc(NC(=O)CCN4CCCC4)ccc23)cc1', 'viability, T/C', '%', 96.8),
  ('CC(C)n1c(=O)n(C)c2cnc3cc(F)c(-c4ccc(OCCCN5CCCCC5)nc4)cc3c21 + Cc1[nH]c2ccc(F)cc2c1-c1nc2c3cccnc3c3ncccc3c2[nH]1', 'viability, T/C', '%', 106),
  ('CCCS(=O)(=O)Nc1ccc(F)c(C(=O)c2c[nH]c3ncc(-c4ccc(Cl)cc4)cc23)c1F + Cc1[nH]c2ccc(F)cc2c1-c1nc2c3cccnc3c3ncccc3c2[nH]1', 'viability, T/C', '%', 86.6);

viability, T/C of Nc1ccn(C2OC(CO)C(O)C2(F)F)c(=O)n1 (stereo unspecified) + Cc1[nH]c2ccc(F)cc2c1-c1nc2c3cccnc3c3ncccc3c2[nH]1 , assay on 299254-011-R-J1-PDC complex spheroids viability, is 116

---

Tested on: 299254-011-R-J1-PDC complex spheroids viability
Test: Anticancer human tumor 299254-011-R-J1-PDC cell line growth inhibition [GQUAD];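 further: spheroids exposed to the agents for seven days before readout; percent viability relative to DMSO vehicle control wells = 100%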
Conditions: second compound 3.16 µM; first compound 0.1 µM; active compounds read low
# viability, T/C listing for each entry below
Numbers only; they are read as %.

INSERT INTO measurements (compound, experimental_target, observed_measurement) VALUES
  ('C=CCn1c(=O)c2cnc(Nc3ccc(N4CCN(C)CC4)cc3)nc2n1-c1cccc(C(C)(C)O)n1 + Cc1[nH]c2ccc(F)cc2c1-c1nc2c3cccnc3c3ncccc3c2[nH]1', '299254-011-R-J1-PDC complex spheroids viability', 91),
  ('CCCS(=O)(=O)Nc1ccc(F)c(C(=O)c2c[nH]c3ncc(-c4ccc(Cl)cc4)cc23)c1F + CN(C)c1ccc(Nc2c3ccc(NC(=O)CCN4CCCC4)cc3nc3cc(NC(=O)CCN4CCCC4)ccc23)cc1', '299254-011-R-J1-PDC complex spheroids viability', 95.1),
  ('CC(=O)O[C@H]1C(=O)[C@@]2(C)[C@H]([C@H](OC(=O)c3ccccc3)[C@]3(O)C[C@H](OC(=O)[C@H](O)[C@@H](NC(=O)c4ccccc4)c4ccccc4)C(C)=C1C3(C)C)[C@]1(OC(C)=O)CO[C@@H]1C[C@@H]2O + CN(C)c1ccc(Nc2c3ccc(NC(=O)CCN4CCCC4)cc3nc3cc(NC(=O)CCN4CCCC4)ccc23)cc1', '299254-011-R-J1-PDC complex spheroids viability', 83.8);

For reference, reported viability, T/C for COc1ncnc(C2CC2)c1-c1ncc2cnn(Cc3ccc(-c4nc(C(F)(F)F)cn4C(C)C)cc3)c2n1 + Cc1[nH]c2ccc(F)cc2c1-c1nc2c3cccnc3c3ncccc3c2[nH]1 stands at 113

For reference, reported viability, T/C for COc1cccc2c1C(=O)c1c(O)c3c(c(O)c1C2=O)CC(O)(C(=O)CO)CC3OC1CC(N)C(O)C(C)O1 (stereo not given) + Cc1cnc(CNC(=O)c2c(=O)c3ccc(N4CCCN(C)CC4)nc3n3c2sc2ccccc23)cn1 stands at 87.7
